- experimentDescription: cytotoxic assay, nuclei count (Hoechst, HCS)
- Format: cell-based
- conditionDescription: human, Caco-2 cells (colorectal adenocarcinoma); 48 h treatment; read-out: Cytotoxic studies IC50 Caco2
readoutType: IC50 at 48 h (µM)

* CC(C)(C)OC(=O)N[C@H]1CC[C@@H](n2cc(COc3cccc4cnc(Nc5cc(Cl)cc(Cl)c5)nc34)nn2)CC1 [15b] | 21
* N[C@H]1CC[C@@H](n2cc(COc3cccc4cnc(Nc5cccc(Cl)c5)nc34)nn2)CC1 [16a] | 9
* CC(C)(C)OC(=O)N[C@H]1CC[C@H](n2cc(COc3cccc4cnc(Nc5cccc(Cl)c5)nc34)nn2)CC1 [18a] | 16
* N[C@H]1CC[C@H](n2cc(COc3cccc4cnc(Nc5cccc(Cl)c5)nc34)nn2)CC1 [19a] | 11
* O=[N+]([O-])c1cc(CO)ccc1-n1cc(COc2cccc3cnc(Nc4cccc(Cl)c4)nc23)nn1 [12e] | 7
* O=[N+]([O-])c1cc(O)ccc1-n1cc(COc2cccc3cnc(Nc4cccc(Cl)c4)nc23)nn1 [12c] | 24
* N[C@H]1CC[C@H](n2cc(COc3cccc4cnc(Nc5cc(Cl)cc(Cl)c5)nc34)nn2)CC1 [19b] | 3
* N[C@H]1CC[C@@H](n2cc(COc3cccc4cnc(Nc5cc(Cl)cc(Cl)c5)nc34)nn2)CC1 [16b] | 3

---

- testTarget: Hs_PIM1 (Homo sapiens, UniProt P11309)
- Construct: host or cells: Sf9 insect cells (baculovirus)
- Sequence (P11309 whole entry): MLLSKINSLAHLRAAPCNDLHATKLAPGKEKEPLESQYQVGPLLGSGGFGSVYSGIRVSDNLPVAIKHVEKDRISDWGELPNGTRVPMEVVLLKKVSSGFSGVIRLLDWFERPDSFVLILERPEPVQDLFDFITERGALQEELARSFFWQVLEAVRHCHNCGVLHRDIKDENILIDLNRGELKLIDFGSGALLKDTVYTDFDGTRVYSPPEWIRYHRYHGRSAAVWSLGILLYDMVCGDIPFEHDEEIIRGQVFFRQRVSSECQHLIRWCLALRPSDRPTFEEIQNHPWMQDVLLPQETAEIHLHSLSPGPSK
- experimentDescription: ADP-Glo kinase assay, primary screen
- Assay type: biochemical
- conditionDescription: 10 µM, n=2; read-out: % of residual activity Hs_PIM1
So basically: is remaining activity at 10 µM under 70%? Then 1.0. Not under? Then 0.0.

• COC(=O)c1ccc(-n2cc(COc3cccc4cnc(Nc5cccc(Cl)c5)nc34)nn2)c([N+](=O)[O-])c1 [12f] = 1.0
• N[C@H]1CC[C@H](n2cc(COc3cccc4cnc(Nc5cc(Cl)cc(Cl)c5)nc34)nn2)CC1 [19b] = 1.0
• O=C(O)c1ccc(-n2cc(COc3cccc4cnc(Nc5cccc(Cl)c5)nc34)nn2)c([N+](=O)[O-])c1 [12g] = 1.0
• CC(C)(C)OC(=O)N[C@H]1CC[C@@H](n2cc(COc3cccc4cnc(Nc5cccc(Cl)c5)nc34)nn2)CC1 [15a] = 0.0
• N[C@H]1CC[C@@H](n2cc(COc3cccc4cnc(Nc5cccc(Cl)c5)nc34)nn2)CC1 [16a] = 1.0

---

- testTarget: MmCLK1 (Mus musculus, UniProt P22518)
- Construct: host or cells: bacteria
- Sequence (P22518 whole entry): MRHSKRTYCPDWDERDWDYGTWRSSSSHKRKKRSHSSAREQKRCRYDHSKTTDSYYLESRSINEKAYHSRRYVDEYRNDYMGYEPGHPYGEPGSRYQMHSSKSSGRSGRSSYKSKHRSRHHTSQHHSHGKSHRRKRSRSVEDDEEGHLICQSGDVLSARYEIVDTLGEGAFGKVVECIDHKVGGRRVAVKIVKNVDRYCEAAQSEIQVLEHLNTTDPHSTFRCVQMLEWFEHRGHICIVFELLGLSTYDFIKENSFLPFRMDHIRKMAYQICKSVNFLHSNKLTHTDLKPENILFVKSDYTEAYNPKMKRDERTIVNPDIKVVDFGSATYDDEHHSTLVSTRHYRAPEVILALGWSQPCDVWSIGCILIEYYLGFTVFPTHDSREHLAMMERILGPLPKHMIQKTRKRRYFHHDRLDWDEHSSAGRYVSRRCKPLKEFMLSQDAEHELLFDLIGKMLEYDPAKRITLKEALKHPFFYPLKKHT
- experimentDescription: ADP-Glo kinase assay
- Assay type: biochemical
- conditionDescription: 1 µM, n=2; read-out: % of residual activity Mm_CLK1
Please note: remaining activity at 1 µM exactly at 70% is 0 (no). Only values below 70% get 1 (yes).

- COC(=O)c1ccc(-n2cc(COc3cccc4cnc(Nc5cccc(Cl)c5)nc34)nn2)c([N+](=O)[O-])c1 [12f]: 1 (yes)
- CC(C)(C)OC(=O)N[C@H]1CC[C@H](n2cc(COc3cccc4cnc(Nc5cc(Cl)cc(Cl)c5)nc34)nn2)CC1 [18b]: 0 (no)
- N[C@H]1CC[C@H](n2cc(COc3cccc4cnc(Nc5cc(Cl)cc(Cl)c5)nc34)nn2)CC1 [19b]: 1 (yes)
- O=[N+]([O-])c1cc(Br)ccc1-n1cc(COc2cccc3cnc(Nc4cccc(Cl)c4)nc23)nn1 [12d]: 1 (yes)
- Cc1ccc(-n2cc(COc3cccc4cnc(Nc5cc(Cl)cc(Cl)c5)nc34)nn2)c([N+](=O)[O-])c1 [7b]: 1 (yes)
- CC(C)(C)OC(=O)N[C@H]1CC[C@@H](n2cc(COc3cccc4cnc(Nc5cc(Cl)cc(Cl)c5)nc34)nn2)CC1 [15b]: 0 (no)
- O=[N+]([O-])c1cc(CO)ccc1-n1cc(COc2cccc3cnc(Nc4cccc(Cl)c4)nc23)nn1 [12e]: 0 (no)

---

- System: Human skin fibroblasts
- experimentDescription: cytotoxic assay, nuclei count (Hoechst, HCS)
- Format: cell-based
- conditionDescription: summary of Table S2
- Protocol: To complete our study, we performed a cytotoxicity screening of the 15 molecules, investigating 7 representative cancer cell lines. The compound’s effect on cell viability was evaluated on Huh-7 (hepatocellular carcinoma), CaCo2, HCT-116 (colorectal adenocarcinoma), MCF7, MDA-MB231, MDA-MB468 (breast carcinoma), PC3 (prostate carcinoma) and NCI-H727 (lung carcinoid). […] The nuclei were stained with Hoechst 33342 and counted using HCS technology. […]
readoutType: toxicity towards fibroblasts

* COC(=O)c1ccc(-n2cc(COc3cccc4cnc(Nc5cccc(Cl)c5)nc34)nn2)c([N+](=O)[O-])c1 [12f] | non-active
* O=C(O)c1ccc(-n2cc(COc3cccc4cnc(Nc5cccc(Cl)c5)nc34)nn2)c([N+](=O)[O-])c1 [12g] | non-active

---

- testTarget: HsCLK1 (Homo sapiens)
- Construct: host or cells: Sf9 insect cells (baculovirus)
- Sequence (P49759 whole entry): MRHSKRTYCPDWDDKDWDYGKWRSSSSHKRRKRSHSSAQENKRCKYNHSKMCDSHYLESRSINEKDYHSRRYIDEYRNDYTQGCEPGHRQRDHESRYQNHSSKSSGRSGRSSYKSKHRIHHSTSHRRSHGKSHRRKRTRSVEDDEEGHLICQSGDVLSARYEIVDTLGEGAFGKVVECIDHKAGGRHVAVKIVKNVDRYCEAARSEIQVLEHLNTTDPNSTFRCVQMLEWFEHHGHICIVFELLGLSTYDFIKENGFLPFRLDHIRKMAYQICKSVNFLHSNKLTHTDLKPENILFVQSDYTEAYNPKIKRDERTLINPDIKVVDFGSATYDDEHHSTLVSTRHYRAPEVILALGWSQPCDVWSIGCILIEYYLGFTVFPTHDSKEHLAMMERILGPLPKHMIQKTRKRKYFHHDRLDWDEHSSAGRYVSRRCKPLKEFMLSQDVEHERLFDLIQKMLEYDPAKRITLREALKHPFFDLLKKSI
- experimentDescription: ADP-Glo kinase assay
- Format: biochemical
- conditionDescription: 10 µM ATP, duplicate; read-out: IC50 HsCLK1
readoutType: IC50 (nM)

* N[C@H]1CC[C@@H](n2cc(COc3cccc4cnc(Nc5cc(Cl)cc(Cl)c5)nc34)nn2)CC1 [16b] | 53
* COC(=O)c1ccc(-n2cc(COc3cccc4cnc(Nc5cccc(Cl)c5)nc34)nn2)c([N+](=O)[O-])c1 [12f] | 293
* Cc1ccc(-n2cc(COc3cccc4cnc(Nc5ccccc5)nc34)nn2)c([N+](=O)[O-])c1 | 1100
* Cc1ccc(-n2cc(COc3cccc4cnc(Nc5cc(Cl)cc(Cl)c5)nc34)nn2)c([N+](=O)[O-])c1 | 85
* O=C(O)c1ccc(-n2cc(COc3cccc4cnc(Nc5cccc(Cl)c5)nc34)nn2)c([N+](=O)[O-])c1 [12g] | 4
* O=[N+]([O-])c1cc(CO)ccc1-n1cc(COc2cccc3cnc(Nc4cccc(Cl)c4)nc23)nn1 [12e] | 146

---

- testTarget: Rn_DYRK1A (Rattus norvegicus)
- Construct: host or cells: bacteria
- experimentDescription: ADP-Glo kinase assay, primary screen
- Assay type: biochemical
- conditionDescription: 1 µM, n=2; read-out: % of residual activity Rn_DYRK1A
In this section we review reported remaining activity at 1 µM values for a set of molecules.
readoutType: remaining activity at 1 µM

* N[C@H]1CC[C@@H](n2cc(COc3cccc4cnc(Nc5cc(Cl)cc(Cl)c5)nc34)nn2)CC1 [16b] | 71%
* O=[N+]([O-])c1cc(Br)ccc1-n1cc(COc2cccc3cnc(Nc4cccc(Cl)c4)nc23)nn1 [12d] | ≥ 100%
* CC(C)(C)OC(=O)N[C@H]1CC[C@@H](n2cc(COc3cccc4cnc(Nc5cccc(Cl)c5)nc34)nn2)CC1 [15a] | ≥ 100%

---

- experimentDescription: cytotoxic assay, nuclei count (Hoechst, HCS)
- Format: cell-based
- conditionDescription: human, MDA-MB-231 cells (breast carcinoma); 48 h treatment; read-out: Cytotoxic studies IC50 MDA-MB-231
readoutType: IC50 at 48 h (µM)

• CC(C)(C)OC(=O)N[C@H]1CC[C@@H](n2cc(COc3cccc4cnc(Nc5cccc(Cl)c5)nc34)nn2)CC1 [15a] = 3
• N[C@H]1CC[C@H](n2cc(COc3cccc4cnc(Nc5cccc(Cl)c5)nc34)nn2)CC1 [19a] = 6

---

Overview of recorded IC50 at 48 h for various molecules
- experimentDescription: cytotoxic assay, nuclei count (Hoechst, HCS)
- Assay type: cell-based
- conditionDescription: human, HCT116 cells (colorectal adenocarcinoma); 48 h treatment; read-out: Cytotoxic studies IC50 HCT116
readoutType: IC50 at 48 h (µM)

- CC(C)(C)OC(=O)N[C@H]1CC[C@H](n2cc(COc3cccc4cnc(Nc5cccc(Cl)c5)nc34)nn2)CC1 [18a]: 5
- N[C@H]1CC[C@@H](n2cc(COc3cccc4cnc(Nc5cccc(Cl)c5)nc34)nn2)CC1 [16a]: 10
- N[C@H]1CC[C@H](n2cc(COc3cccc4cnc(Nc5cc(Cl)cc(Cl)c5)nc34)nn2)CC1 [19b]: 4

---

- testTarget: Hs_HASPIN (Homo sapiens, UniProt Q8TF76)
- Construct: host or cells: bacteria
- Sequence (Q8TF76 whole entry): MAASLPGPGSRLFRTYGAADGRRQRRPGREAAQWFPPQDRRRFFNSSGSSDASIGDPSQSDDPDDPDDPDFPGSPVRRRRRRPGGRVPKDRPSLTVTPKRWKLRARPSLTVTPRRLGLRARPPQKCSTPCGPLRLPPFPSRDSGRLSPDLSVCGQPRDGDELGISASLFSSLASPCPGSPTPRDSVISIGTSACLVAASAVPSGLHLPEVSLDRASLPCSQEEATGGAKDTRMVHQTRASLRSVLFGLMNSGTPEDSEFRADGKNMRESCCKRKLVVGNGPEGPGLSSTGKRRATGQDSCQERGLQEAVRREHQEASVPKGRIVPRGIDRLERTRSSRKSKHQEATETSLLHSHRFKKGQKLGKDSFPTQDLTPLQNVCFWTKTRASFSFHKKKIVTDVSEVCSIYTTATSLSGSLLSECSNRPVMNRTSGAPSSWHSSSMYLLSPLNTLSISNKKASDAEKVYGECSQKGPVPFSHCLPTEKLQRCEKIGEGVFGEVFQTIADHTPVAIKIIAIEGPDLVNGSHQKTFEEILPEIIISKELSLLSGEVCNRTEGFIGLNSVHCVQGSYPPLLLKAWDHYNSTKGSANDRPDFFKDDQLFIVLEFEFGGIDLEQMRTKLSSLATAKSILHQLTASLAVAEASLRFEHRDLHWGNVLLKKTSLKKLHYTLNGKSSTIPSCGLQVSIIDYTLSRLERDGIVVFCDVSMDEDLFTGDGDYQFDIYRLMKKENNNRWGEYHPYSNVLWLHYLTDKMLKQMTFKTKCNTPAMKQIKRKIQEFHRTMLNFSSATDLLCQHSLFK
- experimentDescription: ADP-Glo kinase assay, primary screen
- Assay type: biochemical
- conditionDescription: 1 µM, n=2; read-out: % of residual activity Hs_HASPIN
Catalogue of remaining activity at 1 µM values
readoutType: remaining activity at 1 µM (%)

* O=C(O)c1ccc(-n2cc(COc3cccc4cnc(Nc5cccc(Cl)c5)nc34)nn2)c([N+](=O)[O-])c1 [12g] | 75
* O=[N+]([O-])c1cc(O)ccc1-n1cc(COc2cccc3cnc(Nc4cccc(Cl)c4)nc23)nn1 [12c] | 83
* N[C@H]1CC[C@@H](n2cc(COc3cccc4cnc(Nc5cccc(Cl)c5)nc34)nn2)CC1 [16a] | 72
* N[C@H]1CC[C@H](n2cc(COc3cccc4cnc(Nc5cc(Cl)cc(Cl)c5)nc34)nn2)CC1 [19b] | 95
* CC(C)(C)OC(=O)N[C@H]1CC[C@H](n2cc(COc3cccc4cnc(Nc5cccc(Cl)c5)nc34)nn2)CC1 [18a] | 77
* CC(C)(C)OC(=O)N[C@H]1CC[C@@H](n2cc(COc3cccc4cnc(Nc5cccc(Cl)c5)nc34)nn2)CC1 [15a] | 92
* O=[N+]([O-])c1cc(CO)ccc1-n1cc(COc2cccc3cnc(Nc4cccc(Cl)c4)nc23)nn1 [12e] | 92
* Cc1ccc(-n2cc(COc3cccc4cnc(Nc5ccccc5)nc34)nn2)c([N+](=O)[O-])c1 | 95
